From various publications: pIC50 for High affinity nerve growth factor receptor (Homo sapiens, UniProt P04629).
Please treat pIC50 as minus the base-10 logarithm of the molar concentration.

Prompt: What value of pIC50 on High affinity nerve growth factor receptor (Homo sapiens, UniProt P04629) does CNC(=O)c1ccc(-c2cc(OC(C)C(F)(F)F)c3c(N)n[nH]c3c2)cc1N1CCN(c2cnccn2)CC1 (stereo not drawn) have?
Completion: 7.51

Prompt: Please tell me: pIC50 of `CN1CCN(c2ccc(C(=O)Nc3n[nH]c4ncc(-c5ccncc5)cc34)cc2)CC1` , system High affinity nerve growth factor receptor (Homo sapiens, UniProt P04629)?
Completion: 6.75

Prompt: Request body: readout pIC50, system High affinity nerve growth factor receptor (Homo sapiens, UniProt P04629), query `CC(=O)N1CCN(c2ccc(NC(=O)c3coc4c3C(=O)N(C)CC4)cc2)CC1` . Return the value.
Completion: 6.96

Prompt: Form field: pIC50 recorded for `O=C(Nc1ccc2c(cnn2CCN2CCOCC2)c1)c1coc2c1C(=O)NCC2` with High affinity nerve growth factor receptor (Homo sapiens, UniProt P04629) (enter value)
Completion: 7.31

Prompt: Recorded pIC50 for `Fc1ccc(Cc2ccc3[nH]nc(C#Cc4ccccn4)c3c2)cc1F` with High affinity nerve growth factor receptor (Homo sapiens, UniProt P04629), please?
Completion: 6.30

Prompt: Could you share what pIC50 was measured for `CC(=O)Nc1ccc(NC(=O)c2coc3c2C(=O)NCC3)cc1` , tested on High affinity nerve growth factor receptor (Homo sapiens, UniProt P04629)?
Completion: 6.26
